Where these numbers come from: patent US20050234046A1

- SYSTEM NAME: UniProt:P37231
- Sequence (P37231 238-503 limits assumed): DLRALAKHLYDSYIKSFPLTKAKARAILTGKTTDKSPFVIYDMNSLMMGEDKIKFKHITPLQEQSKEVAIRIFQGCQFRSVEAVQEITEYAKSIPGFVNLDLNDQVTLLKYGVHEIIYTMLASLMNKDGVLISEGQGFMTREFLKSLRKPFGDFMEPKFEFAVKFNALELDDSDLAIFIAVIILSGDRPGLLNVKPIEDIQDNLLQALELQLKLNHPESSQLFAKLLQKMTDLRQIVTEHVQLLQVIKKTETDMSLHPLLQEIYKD
- PROCEDURE SUMMARY: Transient transfection (transactivation) assay in CV-1 cells, GAL4-PPAR chimera, luciferase reporter
pEC50: −log10 of the molar value.
Reported pEC50 values are given for each entry in this list.

# example entries with known answers
Cc1ccc(CC(=O)O)cc1S(=O)(=O)N1CCN(c2cnccn2)CC1 [Example 163]    < 4.00
C[C@@H]1CN(c2ccc(C(F)(F)F)cn2)C[C@H](C)N1S(=O)(=O)c1ccc(F)c(CC(=O)O)c1F [Example 231]    < 4.00
O=C(O)Cc1cccc(S(=O)(=O)N2CCN(c3ccccc3)CC2)c1 [Example 145]    < 4.00
O=C(O)Cc1cccc(S(=O)(=O)N2CCN(c3ccc(C(F)(F)F)cc3)CC2)c1 [Example 3]    4.00 to 5.30
Cc1ccc(S(=O)(=O)N2C[C@@H](C)N(c3ccc(C(F)(F)F)cn3)[C@@H](C)C2)cc1CC(=O)O [Example 72]    < 4.00

Q: Need pEC50, item COCCNCc1cc(CC(=O)O)cc(S(=O)(=O)N2CCN(c3ccc(C(F)(F)F)cc3)CC2)c1 [Example 89]
Result: < 4.00

Q: For Cc1cc(S(=O)(=O)N2CCN(c3ccc(C(F)(F)F)cn3)CC2)cc(CC(=O)O)c1Br [Example 196] then?
Result: > 5.30
